assay: Pharmacokinetics in plasma after oral administration to ICR mice; format: in vivo; conditions: mouse, plasma, oral 10 mg/kg, 8 hr
concentration at 8 h values by entry

- compound: "OCCOCc1cc(NC2CCOCC2)c2[nH]c(-c3ccccc3)cc2c1 [Example 27]"
  concentration at 8 h: "1080 ng/mL"

Using the record for OCc1cc(NC2CCCC2)c2[nH]c(-c3ccccc3)cc2c1 [Comparative Example, reference compound] , report its concentration at 8 h.
51 ng/mL

----------
test: Pharmacokinetics in plasma after oral administration to ICR mice; type: in vivo; details: mouse, plasma, oral 10 mg/kg, 2 hr
Listed next: entries and their corresponding concentration at 2 h.
Express it in ng/mL; write the number only.

- molecule: "OCc1cc(NC2CCCC2)c2[nH]c(-c3ccccc3)cc2c1 [Comparative Example, reference compound]"
  unit-name: "ng/mL"
  concentration at 2 h: 1120

The record that follows has no concentration at 2 h shown yet.
concentration at 2 h for OCCOCc1cc(NC2CCOCC2)c2[nH]c(-c3ccccc3)cc2c1 [Example 27] ?
3780

----------
system: renal fibroblasts (NRK-49F); assay: Protective effect against cell death due to RSL3 (LDH release), NRK-49F; format: cell-based; conditions: RSL3 3 μM, 24 hours
readout-label: EC50

Please look up its EC50: CCOC(=O)c1ccc(NC2CCCCC2)c(N)c1 [Fer-1, ferrostatin-1, reference compound]
≤ 0.1 µM

----------
tested on: lung epithelial cells (MLE-12); assay: Protective effect against cell death due to RSL3 (LDH release), MLE-12; type: cell-based; details: RSL3 1 μM, 24 hours
readout-label: EC50

Quick one: EC50 of CCOC(=O)c1ccc(NC2CCCCC2)c(N)c1 [Fer-1, ferrostatin-1, reference compound] ?
100 to 1000 nM

----------
tested on: cardiac cells (H9C2); assay: Protective effect against t-BHP-induced cell death in cardiac cells (LDH release); format: cell-based; conditions: Rattus norvegicus, t-BHP 400 PM, 2 hours, read-out: EC50, protective effect against cell death due to t-BHP induction
Listed next: entries and their corresponding EC50.

Some compounds with recorded EC50:
- compound: "COCCNCc1cc(NC2CCOCC2)c2[nH]c(-c3ccccc3)cc2c1 [Example 50]"
  readout-label: "EC50"
  obs-value: "≤ 300 nM"
- compound: "CCNS(=O)(=O)c1cc(NC2CCCC2)c2[nH]c(-c3ccccc3)cc2c1 [Example 22]"
  readout-label: "EC50"
  obs-value: "300 to 1000 nM"
- compound: "OCCOCc1cc(NC2CCOCC2)c2[nH]c(-c3ccccc3)cc2c1 [Example 27]"
  readout-label: "EC50"
  obs-value: "≤ 300 nM"
- compound: "O=C(Nc1ccccc1)c1cc(NC2CCOCC2)c2[nH]c(-c3ccccc3)cc2c1 [Example 9]"
  readout-label: "EC50"
  obs-value: "300 to 1000 nM"
- compound: "O=C(Nc1ccccc1)c1cc(NCc2ccccc2)c2[nH]c(-c3ccccc3)cc2c1 [Example 10]"
  readout-label: "EC50"
  obs-value: "300 to 1000 nM"

Would you mind telling me what EC50 value was observed for CC(C)(O)C#Cc1cc(NC2CCOCC2)c2[nH]c(-c3ccccc3)cc2c1 [Example 24] ?
≤ 300 nM

Which EC50 reading was recorded for the compound O=S1(=O)CCN(CCOCc2cc(NC3CCCC3)c3[nH]c(-c4ccccc4)cc3c2)CC1 [Example 43] ?
≤ 300 nM

Quick one: EC50 for CCN(CC)C(=O)Cc1cc(NC2CCOCC2)c2[nH]c(-c3ccccc3)cc2c1 [Example 12] ?
≤ 300 nM

Name the reported EC50 value associated with the compound COCCOCCN(C)C(=O)c1cc(NC2CCOCC2)c2[nH]c(-c3ccccc3)cc2c1 [Example 52]
> 1000 nM

Returns the measured EC50 for the input compound. Input: CN(CCO)CCOCc1cc(NC2CCOCC2)c2[nH]c(-c3ccccc3)cc2c1 [Example 53]
≤ 300 nM

Form field: reported EC50 of CCN(CC)C(=O)c1cc(NCc2ccccc2)c2[nH]c(-c3ccccc3)cc2c1 [Example 3]
≤ 300 nM

Return reported EC50; argument: c1ccc(-c2cc3cc(COC4CCOCC4)cc(NC4CCOCC4)c3[nH]2)cc1 [Example 37]
≤ 300 nM

Endpoint output: EC50 of OC1CCC(OCc2cc(NC3CCOCC3)c3[nH]c(-c4ccccc4)cc3c2)CC1 (stereo not shown) [Example 35] . Value?
≤ 300 nM

----------
test system: cardiac cells (H9C2); test: Protective effect against t-BHP-induced cell death in cardiac cells (LDH release); assay type: cell-based; conditions: Rattus norvegicus, t-BHP 400 PM, 2 hours, read-out: EC50, protective effect against cell death due to t-BHP induction
pEC50: −log10 of the molar value.
readout-label: pEC50

- structure-string: "COCCOCCNC(=O)c1cc(NC2CCOCC2)c2[nH]c(-c3ccccc3)cc2c1"
  obs-value: "6.00 to 6.52"
- structure-string: "OCCCOCCOCc1cc(NC2CCOCC2)c2[nH]c(-c3ccccc3)cc2c1"
  obs-value: "≥ 6.52"
- structure-string: "CS(=O)(=O)CCOCc1cc(NC2CCOCC2)c2[nH]c(-c3ccccc3)cc2c1"
  obs-value: "≥ 6.52"
- structure-string: "COCCNCCOCc1cc(NC2CCOCC2)c2[nH]c(-c3ccccc3)cc2c1"
  obs-value: "≥ 6.52"

Proceed to the following item.
Please give the measured pEC50 for this compound: OCCOCCOCc1cc(NC2CCOCC2)c2[nH]c(-c3ccccc3)cc2c1
≥ 6.52

----------
In this section we review reported Cmax values for a set of molecules.
test: Pharmacokinetics in plasma after oral administration to ICR mice; type: in vivo; settings: mouse, oral 10 mg/kg, plasma
Give the quantity in ng/mL, number only.

- molecule: "OCCOCc1cc(NC2CCOCC2)c2[nH]c(-c3ccccc3)cc2c1 [Example 27]"
  unit-name: "ng/mL"
  Cmax: 4440

Continue with the molecule presented below.
Fill in the blank: the reported Cmax of OCc1cc(NC2CCCC2)c2[nH]c(-c3ccccc3)cc2c1 [Comparative Example, reference compound] is ____.
2110

----------
system: cardiac cells (H9C2); assay: Protective effect against t-BHP-induced cell death in cardiac cells (LDH release); assay type: cell-based; settings: Rattus norvegicus, t-BHP 400 PM, 2 hours, read-out: EC50, protective effect against cell death due to t-BHP induction
readout-label: EC50

- structure-string: "OCCOCc1cc(NC2CCCC2)c2[nH]c(-c3ccccc3)cc2c1"
  obs-value: "≤ 300 nM"
- structure-string: "CCN(CC)C(=O)Cc1cc(NCc2ccncc2)c2[nH]c(-c3ccccc3)cc2c1"
  obs-value: "300 to 1000 nM"
- structure-string: "OCCOCCCc1cc(NC2CCOCC2)c2[nH]c(-c3ccccc3)cc2c1"
  obs-value: "≤ 300 nM"
- structure-string: "CCN(CC)C(=O)c1cc(NCc2ccncc2)c2[nH]c(-c3ccccc3)cc2c1"
  obs-value: "≤ 300 nM"
- structure-string: "COCCN(C)Cc1cc(NC2CCOCC2)c2[nH]c(-c3ccccc3)cc2c1"
  obs-value: "≤ 300 nM"

We now examine a further molecule.
Item under review: CCN(CC)C(=O)Cc1cc(NC2CCCC2)c2[nH]c(-c3ccccc3)cc2c1 . Reported EC50?
300 to 1000 nM

----------
tested on: cardiac cells (H9C2); assay: Protective effect against t-BHP-induced cell death in cardiac cells (LDH release); assay type: cell-based; conditions: Rattus norvegicus, t-BHP 400 PM, 2 hours, read-out: EC50, protective effect against cell death due to t-BHP induction
pEC50: −log10 of the molar value.
readout-label: pEC50

- compound: "O=C(NC1CC1)c1cc(NC2CCCC2)c2[nH]c(-c3ccccc3)cc2c1 [Example 5]"
  target-entity: "cardiac cells (H9C2)"
  readout-label: "pEC50"
  obs-value: "≥ 6.52"
- compound: "CCN(CC)C(=O)Cc1cc(NCc2ccccc2)c2[nH]c(-c3ccccc3)cc2c1 [Example 14]"
  target-entity: "cardiac cells (H9C2)"
  readout-label: "pEC50"
  obs-value: "6.00 to 6.52"

What pEC50 value was documented for this compound, COCCOCCN(C)Cc1cc(NC2CCOCC2)c2[nH]c(-c3ccccc3)cc2c1 [Example 58] ?
≥ 6.52

Can you share its pEC50? I mean this compound: O=C(Cc1cc(NCc2ccccc2)c2[nH]c(-c3ccccc3)cc2c1)Nc1ccccc1 [Example 18]
6.00 to 6.52

For the compound shown here, O=C(NC1CC1)c1cc(NCc2ccncc2)c2[nH]c(-c3ccccc3)cc2c1 [Example 8] , give the reported pEC50.
≥ 6.52

Returns the measured pEC50 for the input compound. Input: OCCNCCOCc1cc(NC2CCOCC2)c2[nH]c(-c3ccccc3)cc2c1 [Example 48]
6.00 to 6.52

Return reported pEC50; argument: FC(F)COCc1cc(NC2CCOCC2)c2[nH]c(-c3ccccc3)cc2c1 [Example 40]
≥ 6.52

Form field: reported pEC50 of CC(C)(O)COCCOCc1cc(NC2CCOCC2)c2[nH]c(-c3ccccc3)cc2c1 [Example 31]
≥ 6.52

For the compound N#CCc1cc(NC2CCOCC2)c2[nH]c(-c3ccccc3)cc2c1 [Example 23] , what pEC50 is on record?
≥ 6.52
